Origin of the recorded values: PubChem BioAssay AID1918931

Reported values of viability, T/C for individual entries
Tested on: 138582-337-R-J1-PDC complex spheroid viability;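 further: spheroids exposed to agents for 7 days; 100% = DMSO vehicle control viability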
EXPERIMENT_DESCRIPTION: Anticancer human tumor 138582-337-R-J1-PDC patient-derived Merkel cell tumor cell line growth inhibition
TEST_SETTINGS: second compound 0.1 µM; first compound 0.003 µM; active compounds read low
Response body: numeric value in %, unit text excluded.

Take a look at these entries with their results.
Provide the documented viability, T/C with 138582-337-R-J1-PDC complex spheroid viability as the system for Nc1ccn(C2OC(CO)C(O)C2(F)F)c(=O)n1 (stereo unspecified) + NC1CC1c1ccc(-c2cccc(O)c2)cc1 69.9

Lab note: need viability, T/C with 138582-337-R-J1-PDC complex spheroid viability for entry Nc1ccn(C2OC(CO)C(O)C2(F)F)c(=O)n1 (stereo unspecified) + NC1CCC(NC2CC2c2ccccc2)CC1 , please look it up. 94.2

Quick check: viability, T/C on 138582-337-R-J1-PDC complex spheroid viability, item CCc1c2c(nc3ccc(O)cc13)-c1cc3c(c(=O)n1C2)COC(=O)[C@]3(O)CC + NC1CC1c1ccc(-c2cccc(O)c2)cc1 ? 65.2

Record Nc1ncn(C2CC(O)C(CO)S2)c(=O)n1 (stereo unspecified) + NC1CC1c1ccc(-c2cccc(O)c2)cc1 : what is its viability, T/C with 138582-337-R-J1-PDC complex spheroid viability? 83.8

What reported viability, T/C corresponds to Nc1ncn(C2CC(O)C(CO)S2)c(=O)n1 (stereo unspecified) + NC1CCC(NC2CC2c2ccccc2)CC1 on 138582-337-R-J1-PDC complex spheroid viability? 105

Field: next compound
Entry CCc1c2c(nc3ccc(O)cc13)-c1cc3c(c(=O)n1C2)COC(=O)[C@]3(O)CC + NC1CCC(NC2CC2c2ccccc2)CC1 , system 138582-337-R-J1-PDC complex spheroid viability: what viability, T/C was measured? 87.9
